B1: BTBD1 (parent)
chain: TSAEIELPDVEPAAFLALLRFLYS

Variants of: B1
protocol-text: protein stability index of a GFP-peptide fusion (GPS, HEK-293T) (PSI 1-6); higher = more stable;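 further: lentivirally expressed fusions sorted by FACS into six bins by GFP to DsRed ratio, PSI derived from sequencing read proportions per bin multiplied by bin number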
experimental-parameters: c terminus: a fixed tail appended
# maps each entry to its protein stability index
outcome-measure: protein stability index

mutations=Y23F observed_measurement=1.75
mutations=A13N observed_measurement=2.5
mutations=E4N observed_measurement=1.44
mutations=L22D observed_measurement=1.87
mutations=R20K observed_measurement=1.29
mutations=L22G observed_measurement=1.72
mutations=L16F observed_measurement=2.06
mutations=T1C observed_measurement=2.79
mutations=L18E observed_measurement=2.13
mutations=L18R observed_measurement=2.03
mutations=L16G observed_measurement=1.64
